target: human JAK1 (a.a. 837-1142) catalytic domain (Homo sapiens, UniProt P23458); construct: human JAK1 (a.a. 837-1142); His tag (N); made in house; host or cells: insect cells (baculovirus); experiment: In vitro JAK kinase assay (HTRF, phosphorylation of biotinylated peptide), JAK1; type: biochemical; conditions: Table B; ATP 1 mM
Sequence (P23458 849-1154): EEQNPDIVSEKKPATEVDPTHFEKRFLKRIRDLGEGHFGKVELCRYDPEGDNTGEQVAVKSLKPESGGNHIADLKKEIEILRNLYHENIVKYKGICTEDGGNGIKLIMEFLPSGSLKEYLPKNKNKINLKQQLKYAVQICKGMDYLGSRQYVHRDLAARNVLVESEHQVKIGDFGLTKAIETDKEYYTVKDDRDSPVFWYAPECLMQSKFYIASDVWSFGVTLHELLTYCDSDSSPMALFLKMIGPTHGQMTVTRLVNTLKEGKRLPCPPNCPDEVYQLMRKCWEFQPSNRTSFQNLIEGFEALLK
pIC50: −log10 of the molar value.
attribute.measured: pIC50

Recorded results for 3 compounds are shown here.
[[record]]
compound = "N#CCC(CN1CCC(Oc2cc(F)cc(C#N)c2)C(F)C1)n1cc(-c2ncnc3[nH]ccc23)cn1 (single isomer, unassigned) [Example 31 diastereomer 2]"
result = "> 8.30"

[[record]]
compound = "C[C@H]1CCCN1Cc1cc(F)cc(OC2CCN(CC(CC#N)n3cc(-c4ncnc5[nH]ccc45)cn3)CC2F)c1 (single isomer, unassigned) [Example 33 diastereomer 2]"
result = "> 8.30"

[[record]]
compound = "C[C@@H]1CCCN1Cc1cc(F)cc(OC2CCN(CC(CC#N)n3cc(-c4ncnc5[nH]ccc45)cn3)CC2F)c1 (single isomer, unassigned) [Example 32 diastereomer 2]"
result = "> 8.30"


Query compound follows.
query: Bench note: what pIC50 did N#CCC(CN1CCC(Oc2cc(F)cc(C#N)c2)C(F)C1)n1cc(-c2ncnc3[nH]ccc23)cn1 (single isomer, unassigned) [Example 31 diastereomer 1] show?
result: 7.60 to 8.30

* * *

target: JAK2 (a.a. 828-1132) catalytic domain (Homo sapiens, UniProt O60674); construct: JAK2 (a.a. 828-1132); His tag (N); made in house; host or cells: insect cells (baculovirus); assay: In vitro JAK kinase assay (HTRF, phosphorylation of biotinylated peptide), JAK2; format: biochemical; conditions: Table A; ATP 1 mM
Sequence (O60674 828-1132): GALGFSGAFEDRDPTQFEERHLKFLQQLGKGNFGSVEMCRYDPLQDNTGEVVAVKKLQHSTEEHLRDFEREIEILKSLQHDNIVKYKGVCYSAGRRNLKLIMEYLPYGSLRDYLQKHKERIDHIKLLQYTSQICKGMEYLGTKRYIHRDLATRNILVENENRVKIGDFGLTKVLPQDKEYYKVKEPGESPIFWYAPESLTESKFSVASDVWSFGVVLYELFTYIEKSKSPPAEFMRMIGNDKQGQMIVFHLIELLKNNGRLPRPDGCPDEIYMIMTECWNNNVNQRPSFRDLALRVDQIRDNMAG
attribute.measured: IC50

Recorded results for 2 molecules are shown here.
[[record]]
molecule = "N#CCC(CN1CCC(Oc2cc(F)cc(C(=O)N3CCOCC3)c2)CC1)n1cc(-c2ncnc3[nH]ccc23)cn1 (stereo not drawn)"
result = "5 to 25 nM"

[[record]]
molecule = "N#CCC(CN1CCC(Oc2cc(F)c(F)c(F)c2)CC1)n1cc(-c2ncnc3[nH]ccc23)cn1 (stereo not drawn) [Example 4, tris(trifluoroacetate)]"
result = "25 to 100 nM"


Query molecule follows.
query: Write down the reported IC50 of CCNC(=O)c1cc(F)cc(OC2CCN(CC(CC#N)n3cc(-c4ncnc5[nH]ccc45)cn3)CC2)c1 (stereo not drawn) , test system: JAK2 (a.a. 828-1132) catalytic domain (Homo sapiens, UniProt O60674).
result: 5 to 25 nM

* * *

molecular target: human JAK1 (a.a. 837-1142) catalytic domain (Homo sapiens, UniProt P23458); construct: human JAK1 (a.a. 837-1142); His tag (N); made in house; host or cells: insect cells (baculovirus); test: In vitro JAK kinase assay (HTRF, phosphorylation of biotinylated peptide), JAK1; format: biochemical; details: Table A; ATP 1 mM
The molecules listed here are annotated with their IC50.

Recorded results for 5 molecules are shown here.
[[record]]
molecule = "N#CCC(CN1CCC(Oc2cc(F)cc(C(=O)N3CCC(F)(F)C3)c2)CC1)n1cc(-c2ncnc3[nH]ccc23)cn1 (stereo not shown) [Example 19]"
attribute_measured = "IC50"
result = "< 5 nM"

[[record]]
molecule = "CN(Cc1cc(F)cc(OC2CCN(CC(CC#N)n3cc(-c4ncnc5[nH]ccc45)cn3)CC2)c1)C1CC1 (stereo not shown) [Example 21]"
attribute_measured = "IC50"
result = "< 5 nM"

[[record]]
molecule = "N#CCC(CN1CCC(Oc2cc(F)cc(C(=O)NCCN3CCOCC3)c2)CC1)n1cc(-c2ncnc3[nH]ccc23)cn1 (stereo not shown) [Example 16, tris(trifluoroacetate)]"
attribute_measured = "IC50"
result = "< 5 nM"

[[record]]
molecule = "N#CCCNC(=O)c1cc(F)cc(OC2CCN(CC(CC#N)n3cc(-c4ncnc5[nH]ccc45)cn3)CC2)c1 (stereo not shown) [Example 12, tris(trifluoroacetate)]"
attribute_measured = "IC50"
result = "< 5 nM"

[[record]]
molecule = "N#CCC(CN1CCC(Oc2cc(F)cc(C#N)c2)CC1)n1cc(-c2ncnc3[nH]ccc23)cn1 (stereo not shown) [Example 6, tris(trifluoroacetate)]"
attribute_measured = "IC50"
result = "< 5 nM"


query: Write down the reported IC50 of CCNC(=O)c1cc(F)cc(OC2CCN(CC(CC#N)n3cc(-c4ncnc5[nH]ccc45)cn3)CC2)c1 (stereo not shown) [Example 9] , test system: human JAK1 (a.a. 837-1142) catalytic domain (Homo sapiens, UniProt P23458).
result: < 5 nM

query: Write down the reported IC50 of N#CCC(CN1CCC(Oc2cc(F)cc(F)c2)CC1)n1cc(-c2ncnc3[nH]ccc23)cn1 (stereo not shown) [Example 1, tris(trifluoroacetate)] , test system: human JAK1 (a.a. 837-1142) catalytic domain (Homo sapiens, UniProt P23458).
result: 5 to 25 nM

query: Write down the reported IC50 of N#CCC(CN1CCC(Oc2cc(F)cc(Cl)c2)CC1)n1cc(-c2ncnc3[nH]ccc23)cn1 (stereo not shown) [Example 2] , test system: human JAK1 (a.a. 837-1142) catalytic domain (Homo sapiens, UniProt P23458).
result: < 5 nM

query: Write down the reported IC50 of COCCNCc1cc(F)cc(OC2CCN(CC(CC#N)n3cc(-c4ncnc5[nH]ccc45)cn3)CC2)c1 (stereo not shown) [Example 30] , test system: human JAK1 (a.a. 837-1142) catalytic domain (Homo sapiens, UniProt P23458).
result: 5 to 25 nM

* * *

Target: JAK2 (a.a. 828-1132) catalytic domain (Homo sapiens, UniProt O60674)
Construct: JAK2 (a.a. 828-1132); His tag (N); made in house; host or cells: insect cells (baculovirus)
Assay: In vitro JAK kinase assay (HTRF, phosphorylation of biotinylated peptide), JAK2
Assay type: biochemical
Conditions: Table A; ATP 1 mM
Method: Compounds herein were tested for inhibitory activity of JAK targets according to the following in vitro assay described in Park et al., Analytical Biochemistry 1999, 269, 94-104. […] The phosphorylated peptide was detected by homogenous time resolved fluorescence (HTRF). […] Binding to the Europium labeled antibody took place for 40 minutes and HTRF signal was measured on a Fusion plate reader (Perkin Elmer, Boston, Mass.). […]
attribute.measured: IC50

Recorded results for 5 molecules are shown here.
[[record]]
molecule = "N#CCC(CN1CCC(Oc2cc(F)cc(C(F)(F)F)c2)CC1)n1cc(-c2ncnc3[nH]ccc23)cn1 (stereo not shown) [Example 3, tris(trifluoroacetate)]"
result = "> 100 nM"

[[record]]
molecule = "CN(C)Cc1cc(F)cc(OC2CCN(CC(CC#N)n3cc(-c4ncnc5[nH]ccc45)cn3)CC2)c1 (single isomer, unassigned) [Example 20 Enantiomer 2]"
result = "5 to 25 nM"

[[record]]
molecule = "CC(C)(C)NC(=O)c1cc(F)cc(OC2CCN(CC(CC#N)n3cc(-c4ncnc5[nH]ccc45)cn3)CC2)c1 (stereo not shown) [Example 15, tris(trifluoroacetate)]"
result = "< 5 nM"

[[record]]
molecule = "N#CCCNC(=O)c1cc(F)cc(OC2CCN(CC(CC#N)n3cc(-c4ncnc5[nH]ccc45)cn3)CC2)c1 (stereo not shown) [Example 12, tris(trifluoroacetate)]"
result = "5 to 25 nM"

[[record]]
molecule = "N#CCC(CN1CCC(Oc2cc(F)cc(F)c2F)CC1)n1cc(-c2ncnc3[nH]ccc23)cn1 (stereo not shown) [Example 5, tris(trifluoroacetate)]"
result = "5 to 25 nM"


Query molecule follows.
query: Bench note: what IC50 did N#CCC(CN1CCC(Oc2cc(F)cc(C#N)c2)CC1)n1cc(-c2ncnc3[nH]ccc23)cn1 (stereo not shown) [Example 6, tris(trifluoroacetate)] show?
result: 25 to 100 nM

* * *

The compounds listed here are annotated with their IC50.
molecular target: JAK2 (a.a. 828-1132) catalytic domain (Homo sapiens); construct: JAK2 (a.a. 828-1132); His tag (N); made in house; host or cells: insect cells (baculovirus); test: In vitro JAK kinase assay (HTRF, phosphorylation of biotinylated peptide), JAK2; assay type: biochemical; details: Table B; ATP 1 mM

query: Bench note: what IC50 did C[C@H]1CCCN1Cc1cc(F)cc(OC2CCN(CC(CC#N)n3cc(-c4ncnc5[nH]ccc45)cn3)CC2F)c1 (single isomer, unassigned) [Example 33 diastereomer 2] show?
result: 25 to 100 nM

query: Bench note: what IC50 did N#CCC(CN1CCC(Oc2cc(F)cc(C#N)c2)C(F)C1)n1cc(-c2ncnc3[nH]ccc23)cn1 (single isomer, unassigned) [Example 31 diastereomer 2] show?
result: 25 to 100 nM

query: Bench note: what IC50 did N#CCC(CN1CCC(Oc2cc(F)cc(C#N)c2)C(F)C1)n1cc(-c2ncnc3[nH]ccc23)cn1 (single isomer, unassigned) [Example 31 diastereomer 1] show?
result: 25 to 100 nM

query: Bench note: what IC50 did C[C@@H]1CCCN1Cc1cc(F)cc(OC2CCN(CC(CC#N)n3cc(-c4ncnc5[nH]ccc45)cn3)CC2F)c1 (single isomer, unassigned) [Example 32 diastereomer 2] show?
result: 5 to 25 nM
